System: MDA-MB-435 melanoma
Experiment: NCI-60 one-dose screen, 48 h (100 = growth as untreated, 0 = no growth, -100 = all killed)
Details: 10 µM unless noted
Description: Growth inhibition of the MDA-MB-435 human Melanoma tumor cell line is measured as a screen for anti-cancer activity. Cells are grown in 96 well plates and exposed to the test compound for 48 hours. Compounds are tested at a single concentration, which is 10^-5 M for most compounds. The reported endpoint is percent growth (GI% or GIPRCNT), where numbers from 0 - 100% represent growth inhibition, and numbers from -100% - 0 represent cell death. […]
About 83,000 compounds went through this panel and 20% of them were active in at least one assay; those are over-represented in the sample as a whole.
Catalogue of growth values
value-type: growth (%)

[[record]]
compound = "O=C(CCCCCCN1CC(=O)N2[C@H](c3cc(Br)cs3)c3[nH]c4ccccc4c3C[C@H]2C1=O)NO"
observed = 22.6

[[record]]
compound = "CC(C)N1CN2C(=S)NC3C2N(C1)C(=S)N3C (configuration not stated)"
observed = 104

[[record]]
compound = "Clc1ccc(Sc2cnc(-c3ccccc3)o2)cc1"
observed = 101

[[record]]
compound = "Nc1nc2c([nH]1)c1[nH]c3ccccc3c1c1[nH]c3ccccc3c21"
observed = 1.06

[[record]]
compound = "Cn1cc(-c2nonc2-c2c[nH]c3ccc(Br)cc23)c2cc(Br)ccc21"
observed = 40.3

[[record]]
compound = "COc1ccc(C(=S)N2CCN(c3ccccc3Cl)CC2)cc1OC"
observed = 91.7

[[record]]
compound = "N#C/C(=C\\c1ccc(-c2ccc(Cl)cc2)o1)C(=O)Nc1ncc(Cc2ccc(Cl)cc2)s1"
observed = 21.2

[[record]]
compound = "O=C(O)/C(=C\\c1ccc(Cl)cc1)c1ccc(Cl)cc1"
observed = 97.2

[[record]]
compound = "O=C(OCc1ccc2cccc(O)c2n1)N1CCN(C(=O)c2cc3cc(F)ccc3[nH]2)CC1"
observed = -89.8

[[record]]
compound = "CC(=O)N1N=C(c2ccc(Nc3nc(Nc4ccc(Cl)cc4)nc(Nc4ccc(Cl)cc4)n3)cc2)CC1c1ccco1 (configuration not stated)"
observed = 84.5

[[record]]
compound = "CN(Cc1ccc(C(F)(F)F)cc1)CC(O)C(=O)Nc1ccc(Cl)cc1 (configuration not stated)"
observed = -4.56

[[record]]
compound = "N#C/C(=C\\c1ccc(Br)cc1)n1nnc2ccc(F)cc21"
observed = -34.1

[[record]]
compound = "O=C(CSc1nc(-c2ccccc2)[nH]c1S(=O)(=O)c1ccccc1)NC1CC1"
observed = 108

[[record]]
compound = "O=C1/C(=C/c2ccccc2Br)COc2ccc(O)c(O)c21"
observed = 2.78

[[record]]
compound = "COc1cc(NC(C)CCCNC(C)C)c2ncccc2c1OC (configuration not stated)"
observed = 108

[[record]]
compound = "CCCCC(=O)Nc1ncc(Cc2ccc(Cl)cc2)s1"
observed = 0.64

[[record]]
compound = "COc1cc(-c2cc(-c3ccc(N(C)C)cc3)nc(N3CCC(O)CC3)c2C#N)cc(OC)c1OC"
observed = -18.5

[[record]]
compound = "O=Nc1c(-c2c(O)[nH]c3ncccc23)[nH]c2ccccc12"
observed = 72.6

[[record]]
compound = "O=C(/C=C/c1cn(-c2ccccc2)nc1-c1ccc([N+](=O)[O-])cc1)c1ccc(Cl)cc1"
observed = 59.5

[[record]]
compound = "O=C(/C=C/c1ccc(Cl)cc1)c1cccc(Nc2nc(Nc3ccccc3)nc(Nc3ccccc3)n2)c1"
observed = 102

[[record]]
compound = "Cc1c(-n2nnc(-c3nc4ccccc4s3)c2N)c(=O)n(-c2ccccc2)n1C"
observed = 114

[[record]]
compound = "O=C1N[C@@H]2NC(=[N+]3CCOCC3)N[C@@H]2N1"
observed = 105

[[record]]
compound = "CCn1c(=S)sc2c(Nc3ccc(F)cc3)nc(-c3cccnc3)nc21"
observed = 81.1

[[record]]
compound = "COc1cc(C(=O)n2nc(N3CCN(C)CC3)c3cc(N)ccc32)cc(OC)c1OC"
observed = -12

[[record]]
compound = "Cn1c(=O)c2c(nc(NC3=NS(=O)(=O)c4ccccc43)n2CC(=O)N2CCc3ccccc32)n(C)c1=O"
observed = 101

[[record]]
compound = "OCc1cccc(-c2ccc3ncc(-c4nc(NC5CC5)ncc4F)n3c2)c1"
observed = -31.7

[[record]]
compound = "CCNC(=O)c1[nH]cc(-c2ccccc2)c1-c1cc(OC)c2c(c1OC)OCO2"
observed = 103

[[record]]
compound = "CCCCCOc1ccc(C(=O)/C(Br)=C/C(=O)O)cc1"
observed = 104

[[record]]
compound = "CCN(CC)CCCN1C(=O)c2c(c(C)c3c(oc4cc(O)ccc43)c2C)C1=O"
observed = -61.1

[[record]]
compound = "Cc1ccc2c(n1)C(=O)c1[nH]c3ccccc3c1C2=O"
observed = -87.6

[[record]]
compound = "O=C(NNc1nccc(Nc2ccc(S(=O)(=O)Nc3ccncc3)cc2)n1)c1ccccc1"
observed = 105

[[record]]
compound = "O=C1/C(=C/c2ccc(F)cc2)COc2ccc(O)c(O)c21"
observed = 1.65


====

tested on: DU-145 prostate; experiment: NCI-60 one-dose screen, 48 h; conditions: 10 µM unless noted
About 83,000 compounds went through this panel and 20% of them were active in at least one assay; those are over-represented in the sample as a whole. Active and inactive are the calls of the source. Rule for the calls: active = growth percent below 10; inactive = the rest.
Possible outcomes: active, inactive

[[record]]
compound = "O=[N+]([O-])C1C(c2ccccc2)C12c1ccccc1-c1ccccc12 (centres undefined)"
class_label = "active"

[[record]]
compound = "O=C(NCc1ccccc1)Nc1ccccc1CNc1nc(Nc2ccc(OCCN3CCCC3)cc2)ncc1Cl"
class_label = "inactive"

[[record]]
compound = "O=[N+]([O-])c1ccc(-c2nc(N3CCOCC3)c3c4c(sc3n2)CCCC4)cc1"
class_label = "inactive"

[[record]]
compound = "O=C(c1ccccc1)C1C(=O)N2C(=S)N(c3ccccc3)C(=O)C2C1c1ccc(Cl)cc1 (centres undefined)"
class_label = "inactive"

[[record]]
compound = "CN1CCN(Cc2ccc(NC(=O)c3cncc(C#Cc4cnc(N)c5ccccc45)c3)cc2C(F)(F)F)CC1"
class_label = "active"

[[record]]
compound = "O=C1/C(=C/c2ccc(-c3ccc(Br)cc3)o2)SC(=S)N1CCc1ccc(O)cc1"
class_label = "inactive"

[[record]]
compound = "COC1C[C@H](O[C@@H]2C[C@H](O[C@@H]3C[C@H](O[C@@H]4C(=O)c5c(cc6cc(O[C@H]7C[C@@H](O[C@H]8C[C@@H](O)[C@H](O)C(C)O8)[C@H](O)C(C)O7)c(C)c(O)c6c5O)C[C@H]4C(OC)C(=O)[C@@H](O)[C@@H](C)O)OC(C)[C@H]3O)OC(C)[C@@H]2O)OC(C)[C@@H]1O (some centres undefined)"
class_label = "inactive"

[[record]]
compound = "C=C1C(=O)O[C@H]2[C@H]1CC/C(COC(=O)N[C@H]1C[C@H](O[C@H]3C[C@](O)(C(=O)CO)Cc4c(O)c5c(c(O)c43)C(=O)c3c(OC)cccc3C5=O)O[C@@H](C)[C@H]1O)=C\\CC[C@@]1(C)O[C@@H]21"
class_label = "inactive"

[[record]]
compound = "COc1ccc2[nH]cc(-c3nc(-c4cn(C)c5c(Cl)nccc45)cs3)c2c1"
class_label = "inactive"

[[record]]
compound = "C/C(=N\\NC(=O)c1ccccc1O)c1cccc(/C(C)=N/NC(=O)c2ccccc2O)n1"
class_label = "inactive"

[[record]]
compound = "COC(C(=O)[C@@H](O)[C@@H](C)O)[C@@H]1Cc2cc3cc(O[C@H]4C[C@@H](O[C@H]5C[C@@H](O)[C@H](O)C(C)O5)[C@H](O)C(C)O4)c(C)c(O)c3c(O)c2C(=O)[C@H]1O[C@H]1C[C@@H](O[C@H]2C[C@@H](O[C@H]3C[C@@H](O)[C@H](OC)C(C)O3)[C@@H](O)C(C)O2)[C@H](O)C(C)O1 (some centres undefined)"
class_label = "inactive"

[[record]]
compound = "CC1=C(Nc2ccc(N3CCN(C)CC3)cc2)C(=O)c2cncnc2C1=O"
class_label = "inactive"

[[record]]
compound = "COc1cc(-c2nc(SCC(C)C)nc(Nc3cccc4ccccc34)c2C#N)cc(OC)c1OC"
class_label = "inactive"

[[record]]
compound = "Cc1ccc(S(=O)(=O)N2CCCC2CO)cc1 (centres undefined)"
class_label = "inactive"

[[record]]
compound = "O=C(Cn1c(=O)sc2nc3ccccc3nc21)Nc1ncc(Cc2cccc(Cl)c2Cl)s1"
class_label = "inactive"

[[record]]
compound = "COc1ccc(OC)c(-c2c(C#N)c(-c3cccs3)nc3c2c(-c2ccccc2)nn3-c2ccccc2)c1"
class_label = "inactive"

[[record]]
compound = "C=CC(=O)NCc1ccc(Nc2nccc(-c3ccc(N4CCCC4)c(C#N)c3)n2)cc1"
class_label = "inactive"

[[record]]
compound = "N#CC1CCc2c(c(-c3cn[nH]c3C(F)(F)F)nc3c(F)cc4[nH]ncc4c23)C1 (centres undefined)"
class_label = "inactive"

[[record]]
compound = "C[C@]12C=CC(=O)C=C1CCC1C2[C@@H](O)C[C@@]2(C)C1CC[C@]2(O)C(=O)COC(=O)CCC(=O)O (some centres undefined)"
class_label = "inactive"

